Data origin, for the record: patent US20180194839A1

target-under-test: T1, human IL-17A (construct not stated) (human, UniProt Q16552 24-155, limits assumed)
T1 construct: also called huIL-17A; human IL-17A biotin
T1 sequence: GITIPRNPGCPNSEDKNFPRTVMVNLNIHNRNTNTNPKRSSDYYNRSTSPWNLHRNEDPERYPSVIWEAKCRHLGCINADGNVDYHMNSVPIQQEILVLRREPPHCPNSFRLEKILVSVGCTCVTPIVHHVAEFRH
run-description: ELISA on coated huIL-17A, crude Fab extract, wash of at least 3 h
Parameter: Off-rate ELISA (normalized to XAB1 Fab). Scope: all listed entries.

{"binder": "MB461 (Fab, V domains shown, heavy chain C-terminal Flag tag) VH: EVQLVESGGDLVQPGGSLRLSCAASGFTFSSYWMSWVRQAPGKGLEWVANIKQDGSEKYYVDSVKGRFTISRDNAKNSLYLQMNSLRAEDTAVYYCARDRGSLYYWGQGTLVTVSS VL: AIQLTQSPSSLSASVGDRVTITCRPSQGIYWTLAWYQQKPGKAPKLLIYDASSLENGVPSRFSGSGSGTDFTLTISSLQPEDFATYYCQQFNSYPLTFGGGTKVEIK", "recorded-measurement": "49.8 ratio to XAB1 Fab"}
{"binder": "MB450 (Fab, V domains shown, heavy chain C-terminal Flag tag) VH: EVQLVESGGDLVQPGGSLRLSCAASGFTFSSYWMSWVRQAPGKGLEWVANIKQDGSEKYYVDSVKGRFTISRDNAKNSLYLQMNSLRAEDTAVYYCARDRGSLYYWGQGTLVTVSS VL: AIQLTQSPSSLSASVGDRVTITCRPSQGIMWWLAWYQQKPGKAPKLLIYDASSLENGVPSRFSGSGSGTDFTLTISSLQPEDFATYYCQQFNSYPLTFGGGTKVEIK", "recorded-measurement": "41.5 ratio to XAB1 Fab"}

Then this binder:
For this binder ( MB468 (Fab, V domains shown, heavy chain C-terminal Flag tag; with N56Q formatted to IgG as XAB3) VH: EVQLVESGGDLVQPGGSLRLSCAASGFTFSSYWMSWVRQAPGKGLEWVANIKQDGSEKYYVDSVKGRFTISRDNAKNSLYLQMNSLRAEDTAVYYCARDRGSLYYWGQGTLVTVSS VL: AIQLTQSPSSLSASVGDRVTITCRPSQGIYWELAWYQQKPGKAPKLLIYDASSLENGVPSRFSGSGSGTDFTLTISSLQPEDFATYYCQQFNSYPLTFGGGTKVEIK ), measured Off-rate ELISA (normalized to XAB1 Fab) is 43.9 ratio to XAB1 Fab
